Read-out: ABC Transporter (ABCB11), ABCB11 (gene 8647)
Assay: LTEA_HepaRG_ABCB11: Life Technologies and Expression Analysis (LTEA) Assay for ABC Transporter (ABCB11) using HepaRG (AID 2283463)
Settings: mRNA level, 48 h; actives raise or lower the signal
Protocol: LTEA_HepaRG is a cell based, multiplexed-readout assay that uses HepaRG, a human liver cell line, with measurements taken at 48 hours after chemical dosing on a 96-well plate.LTEA_HepaRG_ABCB11 is one of 102 assay component(s) measured in the LTEA HepaRG cell culture assay. It is a marker of Steatosis/NR mediated transport.Data from the assay component LTEA_HepaRG_ABCB11 was analyzed into 1 endpoint. […]
The source made the active and inactive calls. How the source made its calls: active means hit-call score of the fitted dose curve at least 0.9, where 1 is the maximum; inactive means score below 0.9.
Pick one and only one: TRUE (active), FALSE (inactive)

The following compounds have reported results that may help.
>>> class_label("c1ccc2occc2c1")
"FALSE"
>>> class_label("CCCCCCC(CCCCCCCCCCC(=O)OCC(COC(C)=O)OC(C)=O)OC(C)=O (stereo unspecified)")
"FALSE"
>>> class_label("CN(C)CCCN(C)CCCN(C)C")
"FALSE"
>>> class_label("CCc1cc(C2=C(C(=O)O)N(c3ccccc3C(F)(F)F)S(=O)(=O)c3ccccc32)cc2c1OCO2")
"TRUE"
>>> class_label("CCCCCCCCCCCCCCOS(=O)(=O)O")
"FALSE"
>>> class_label("CC1(C)C(=O)NC(=O)N1CO")
"FALSE"

IN: Test call, this compound: CCOCCOCCO
OUT: FALSE

IN: Okay, and O=C(NS(=O)(=O)/C=C/c1cccs1)c1ccc(F)cc1Br ?
OUT: TRUE

IN: Okay, and O=C(O)c1[nH]n(-c2ccc(S(=O)(=O)O)cc2)c(=O)c1N=Nc1ccc(S(=O)(=O)O)cc1 ?
OUT: FALSE

IN: Okay, and Cc1cc(SC2=C(O)C[C@@](CCc3ccc(N)cc3)(C(C)C)OC2=O)c(C(C)(C)C)cc1CO ?
OUT: TRUE

IN: Okay, and CN(C)C(=O)NC1(c2ccccc2)CCN(CC[C@@]2(c3ccc(F)c(F)c3)CN(C(=O)c3ccccc3)CCO2)CC1 ?
OUT: TRUE

IN: Okay, and O=C(Oc1ccccc1)c1cccc(C(=O)Oc2ccccc2)c1 ?
OUT: FALSE

---

molecular target: Estrogen receptor (Homo sapiens); assay: ATG_ERa_TRANS: Attagene TRANS-FACTORIAL HepG2 Assay for human Estrogen Receptor alpha (ERa) (AID 2282970); settings: HepG2 Attagene TRANS ERa GAL4 reporter, mRNA
Inconclusive results are not listed. Active and inactive are the calls of the source. How the source made its calls: active means hit-call score of the fitted dose curve at least 0.9, where 1 is the maximum; inconclusive means response in the unintended direction; inactive means score below 0.9.
Pick one and only one: 1 (yes) (active), 0 (no) (inactive)

>>> class_label("O=C(N[C@@H](c1ccccc1)[C@@H]1CCCCN1)c1cccc(C(F)(F)F)c1Cl")
"0 (no)"
>>> class_label("CSc1ccc(Oc2ccc(S(N)(=O)=O)cc2CN(C)C)cc1C")
"0 (no)"
>>> class_label("COC(=O)CCC(=O)OC")
"0 (no)"
>>> class_label("CC1(C)C(=O)NC(=O)N1CO")
"1 (yes)"
>>> class_label("O=[Si]=O")
"0 (no)"

IN: Test call, this compound: Oc1ccc(O)cc1
OUT: 1 (yes)

IN: Okay, and CC(C)OC(=O)C(C)(C)Oc1ccc(C(=O)c2ccc(Cl)cc2)cc1 ?
OUT: 1 (yes)
